ASSAY SYSTEM: JAK3: Recombinant human kinase domain (h-jak3-sf21-c) (Homo sapiens)
Construct: JAK3: Recombinant human kinase domain from Millipore (Cat # 14-629) or prepared
Sequence (P52333 822-1111 limits assumed): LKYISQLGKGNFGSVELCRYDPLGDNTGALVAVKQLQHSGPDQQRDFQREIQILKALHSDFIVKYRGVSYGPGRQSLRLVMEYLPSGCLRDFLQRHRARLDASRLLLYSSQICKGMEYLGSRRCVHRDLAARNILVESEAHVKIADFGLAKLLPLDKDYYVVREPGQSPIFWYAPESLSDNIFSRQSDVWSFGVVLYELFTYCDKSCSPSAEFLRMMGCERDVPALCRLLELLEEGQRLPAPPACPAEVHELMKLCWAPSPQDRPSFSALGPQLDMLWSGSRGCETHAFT
METHOD: Determination of IC50 of Janus Kinase (JAK) inhibition, JAK3 (radioactive end-point assay with 33P-ATP)
TEST PARAMETERS: ATP 1.5 uM, peptide 50 uM, 20 minutes, room temperature
ASSAY ENDPOINT: IC50 (nM)

{"MOLECULE": "O=C(N[C@H]1CCOC[C@@H]1O)c1c[nH]c2ncc(C3CC3)nc12", "MEASUREMENT UNIT": "nM", "IC50": 423}

(a) CC(=O)N[C@@H]1CCc2ccc(Oc3cnc4[nH]cc(C(=O)NC5CCS(=O)(=O)CC5)c4n3)cc21
(b) N#C[C@@H]1CCC[C@@H]1NC(=O)c1c[nH]c2ncc(C3CC3)nc12 (relative stereo)
From the items above, decide which of a and b has the lower IC50 reading. Please indicate the selected item by its label.
b

====

ASSAY SYSTEM: JAK3: Recombinant human kinase domain (h-jak3-sf21-c) (Homo sapiens)
Construct: JAK3: Recombinant human kinase domain from Millipore (Cat # 14-629) or prepared
METHOD: Determination of IC50 of Janus Kinase (JAK) inhibition, JAK3 (radioactive end-point assay with 33P-ATP)
TEST PARAMETERS: ATP 1.5 uM, peptide 50 uM, 20 minutes, room temperature
pIC50: −log10 of the molar value.
ASSAY ENDPOINT: pIC50

{"MOLECULE": "CS(=O)(=O)N1CCCC(NC(=O)c2c[nH]c3ncc(C4CC4)nc23)C1 (stereo not shown)", "pIC50": 8.10}
{"MOLECULE": "CC(C)S(=O)(=O)N1CCCC(NC(=O)c2c[nH]c3ncc(C4CC4)nc23)C1 (stereo not shown)", "pIC50": 7.14}
{"MOLECULE": "N#CC1(NC(=O)c2c[nH]c3ncc(C4CC4)nc23)CC1", "pIC50": 6.28}

(1) O=C(NC1CCCCC1)c1c[nH]c2ncc(C3CC3)nc12
(2) O=C(NC1CCCC1)c1c[nH]c2ncc(C3CC3)nc12
From the items above, decide which of 1 and 2 has the lower pIC50 reading. Please indicate the selected item by its label.
2
(2: 7.88, 1: 8.28)

====

Property: melting point; scope: individual compounds

Previously resolved entries follow.
{"COMPOUND": "O=C(NC1CCCC1)c1c[nH]c2ncc(C3CC3)nc12", "ASSAY ENDPOINT": "melting point", "OBSERVED": "> 300 °C"}
{"COMPOUND": "O=C(NC1CCCOC1)c1c[nH]c2ncc(C3CC3)nc12 (stereo not shown)", "ASSAY ENDPOINT": "melting point", "OBSERVED": "> 300 °C"}
{"COMPOUND": "O=C(NC1CCCCC1)c1c[nH]c2ncc(Oc3ccccc3)nc12", "ASSAY ENDPOINT": "melting point", "OBSERVED": "255 to 257 °C"}

Consider the compound shown here: N#C[C@@H]1CCC[C@@H]1NC(=O)c1c[nH]c2ncc(C3CC3)nc12 (relative stereo) What is its recorded melting point?
> 300 °C

Consider the compound shown here: CC(C)S(=O)(=O)N1CCCC(NC(=O)c2c[nH]c3ncc(C4CC4)nc23)C1 (stereo not shown) What is its recorded melting point?
255 to 258 °C

Consider the compound shown here: O=C(NC1(CO)CCCC1)c1c[nH]c2ncc(C3CC3)nc12 What is its recorded melting point?
272 to 274 °C

Consider the compound shown here: N#CC1(NC(=O)c2c[nH]c3ncc(C4CC4)nc23)CC1 What is its recorded melting point?
> 300 °C

Consider the compound shown here: O=C(NC1(C(=O)C2CC2)CCCC1)c1c[nH]c2ncc(C3CC3)nc12 What is its recorded melting point?
296 to 299 °C

Consider the compound shown here: CC(C)(O)C1(NC(=O)c2c[nH]c3ncc(C4CC4)nc23)CCOC1 (stereo not shown) What is its recorded melting point?
213 to 215 °C

Consider the compound shown here: CC(C)(O)C1(NC(=O)c2c[nH]c3ncc(C4CC4)nc23)CCCCC1 What is its recorded melting point?
228 to 230 °C
